assay: Plasma protein binding in human at 10 uM measured upto 24 hrs by equilibrium dialysis method
metric: fraction unbound at 24 h, 10 µM
Answers are plain numbers.

Ask: Data request, read-out fraction unbound at 24 h, 10 µM, for `CN[C@H]1CC[C@@H](c2ccc(Cl)c(Cl)c2)c2ccccc21`
Result: 0.01
